Assay: BSK_SAg_PBMCCytotoxicity: PBMC Cytotoxicity Assessment in the BioMAP Diversity Plus: SAg Assay (AID 2283093);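 note: PBMC viability measured as Alamar Blue reduction fluorescence at 546/580 nm; fitted both ways against DMSO so a hit may be loss or gain of signal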
Settings: primary human HUVEC with PBMC
The source made the active and inactive calls. Rule for the calls: active = hit-call score of the fitted dose curve at least 0.9, where 1 is the maximum; inactive = score below 0.9.
Allowed answers: label 1 = active, label 0 = inactive

Some solved cases for reference:
# compound, classification
rows = [
    ("C=CCC1=C(C)[C@@H](OC(=O)[C@@H]2[C@@H](C=C(C)C)C2(C)C)CC1=O", "label 1"),
    ("CCOc1cc(Oc2ccc(C(F)(F)F)cc2Cl)ccc1[N+](=O)[O-]", "label 0"),
    ("O=C(O)COc1nc(Cl)c(Cl)cc1Cl", "label 0"),
    ("CN(C)C(=S)SSC(=S)N(C)C", "label 1"),
    ("CC1=C(C(=O)Nc2ccccc2)SCCO1", "label 0"),
    ("OC(c1ccc(Cl)cc1)(c1cncnc1)c1ccccc1Cl (configuration not stated)", "label 1"),
    ("Oc1ccccc1-c1ccccc1", "label 0"),
    ("CC(Oc1ccc(Cl)cc1Cl)C(=O)O (configuration not stated)", "label 0"),
]

Below: the item to evaluate.
## Task // param item: CC1COC(Cn2cncn2)(c2ccc(Oc3ccc(Cl)cc3)cc2Cl)O1 (configuration not stated) ; yields the recorded call
## Result label 1

* * *

Assay: ATG_AP_1_CIS: Attagene CIS-FACTORIAL HepG2 Assay for human Activator Protein 1 (AP-1) (AID 2282931)
Conditions: HepG2 Attagene cis-factorial AP-1 reporter mRNA; actives raise or lower the signal
The source made the active and inactive calls. Rule for the calls: active = hit-call score of the fitted dose curve at least 0.9, where 1 is the maximum; inactive = score below 0.9.
Allowed answers: active, inactive

# compound, classification
records = [
    ("CC1COC(Cn2cncn2)(c2ccc(Oc3ccc(Cl)cc3)cc2Cl)O1 (centres undefined)", "active"),
    ("O=C(O)COc1nc(Cl)c(Cl)cc1Cl", "inactive"),
    ("CC(C)(C)c1ccc(CSc2cnn(C(C)(C)C)c(=O)c2Cl)cc1", "active"),
]

## Task // param item: CC(C)C1(C)N=C(c2nc3ccccc3cc2C(=O)O)NC1=O (centres undefined) ; yields the recorded call
## Result inactive

## Task // param item: COP(=S)(OC)Oc1nc(Cl)c(Cl)cc1Cl ; yields the recorded call
## Result inactive

## Task // param item: CC(Oc1ccc(Cl)cc1Cl)C(=O)O (centres undefined) ; yields the recorded call
## Result inactive

## Task // param item: Fc1ccc(Oc2ccnc3cc(Cl)cc(Cl)c23)cc1 ; yields the recorded call
## Result inactive

## Task // param item: COC(=O)N(OC)c1ccccc1COc1ccn(-c2ccc(Cl)cc2)n1 ; yields the recorded call
## Result inactive

## Task // param item: N#CC(CCc1ccc(Cl)cc1)(Cn1cncn1)c1ccccc1 (centres undefined) ; yields the recorded call
## Result active

## Task // param item: O=C(Nc1ccccc1)Nc1ccnc(Cl)c1 ; yields the recorded call
## Result active

## Task // param item: COc1nc(NC(C)C)nc(NC(C)C)n1 ; yields the recorded call
## Result inactive

## Task // param item: COc1nc(C)nc(NC(=O)NS(=O)(=O)c2ccccc2CCC(F)(F)F)n1 ; yields the recorded call
## Result inactive

## Task // param item: CCON=C(CC)C1=C(O)CC(c2c(C)cc(C)cc2C)CC1=O (centres undefined) ; yields the recorded call
## Result inactive

## Task // param item: Cc1cc(Cl)ccc1OCC(=O)O ; yields the recorded call
## Result inactive

# credit: PubChem BioAssay (EPA / NIEHS)
